This collection of values is drawn from paper PMC12203311.

- Tested on: A549/ATCC
- Experiment description: NCI60 five-dose screen
- Assay type: cell-based
- Condition set: Homo sapiens, NSC lung cancer, read-out: LC50 (the source's name)
Label key: Met means CC50 under 40 µM; Not met means CC50 of 40 µM or more.

- O=C(N/N=C/c1ccc[nH]1)c1[nH]c2ccc(Br)cc2c1-c1ccccc1: Met
- CCOC(=O)c1c[nH]c(/C=N/NC(=O)c2[nH]c3ccc(Br)cc3c2-c2ccccc2)c1: Not met
- CCOC(=O)c1ccc(/C=N/NC(=O)c2[nH]c3ccc(Br)cc3c2-c2ccccc2)[nH]1: Not met
- O=C(N/N=C/c1cc[nH]c1)c1[nH]c2ccc(Br)cc2c1-c1ccccc1: Not met
- O=C(N/N=C/c1cc(Br)c[nH]1)c1[nH]c2ccc(Br)cc2c1-c1ccccc1: Not met
- Cc1[nH]c(/C=N/NC(=O)c2[nH]c3ccc(Br)cc3c2-c2ccccc2)c(C)c1[N+](=O)[O-]: Met
- CCc1cc[nH]c1/C=N/NC(=O)c1[nH]c2ccc(Br)cc2c1-c1ccccc1: Not met
- O=C(N/N=C/c1cc(Cl)c[nH]1)c1[nH]c2ccc(Br)cc2c1-c1ccccc1: Not met
- O=C(N/N=C/c1ccc([N+](=O)[O-])[nH]1)c1[nH]c2ccc(Br)cc2c1-c1ccccc1: Not met
- CCOC(=O)c1cc(/C=N/NC(=O)c2[nH]c3ccc(Br)cc3c2-c2ccccc2)c[nH]1: Not met
- O=C(N/N=C/c1cc([N+](=O)[O-])c[nH]1)c1[nH]c2ccc(Br)cc2c1-c1ccccc1: Not met
- O=C(N/N=C/c1cc(Br)c(Br)[nH]1)c1[nH]c2ccc(Br)cc2c1-c1ccccc1: Met
- O=C(N/N=C/c1[nH]ccc1Cl)c1[nH]c2ccc(Br)cc2c1-c1ccccc1: Not met
- Cn1cccc1/C=N/NC(=O)c1[nH]c2ccc(Br)cc2c1-c1ccccc1: Not met
- CCc1c[nH]c(/C=N/NC(=O)c2[nH]c3ccc(Br)cc3c2-c2ccccc2)c1: Met
- Cc1cc(C)c(/C=N/NC(=O)c2[nH]c3ccc(Br)cc3c2-c2ccccc2)[nH]1: Not met
- CCc1ccc(/C=N/NC(=O)c2[nH]c3ccc(Br)cc3c2-c2ccccc2)[nH]1: Not met
- O=C(N/N=C/c1ccc(C(=O)N2CCOCC2)[nH]1)c1[nH]c2ccc(Br)cc2c1-c1ccccc1: Not met
